molecular target: HRgpA-6H (Porphyromonas gingivalis) (UniProt P28784); experiment: ELISA, FASEBA Fab supernatant on coated HRgpA-6H
Listed here are binders together with their documented OD450 nm.
Value Kind: OD450 nm

>>> measured_number("KB001 mouse Fab variant VL Y97L (Fab, V domains shown) VH: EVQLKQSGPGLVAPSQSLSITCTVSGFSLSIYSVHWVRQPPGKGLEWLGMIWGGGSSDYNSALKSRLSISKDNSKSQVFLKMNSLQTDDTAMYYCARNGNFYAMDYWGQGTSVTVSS VL: QIVLTQSPAIMSASLGERVTMTCTASSSVSSSFLHWYQQKPGSSPQLWIYSTSNLASGVPARFSGSGSGTSYSLTISSMEAEDAATYYCHQYHHSPLIYTFGGGTKLEIK")
0.739
>>> measured_number("KB001 mouse Fab variant VL S57E (Fab, V domains shown) VH: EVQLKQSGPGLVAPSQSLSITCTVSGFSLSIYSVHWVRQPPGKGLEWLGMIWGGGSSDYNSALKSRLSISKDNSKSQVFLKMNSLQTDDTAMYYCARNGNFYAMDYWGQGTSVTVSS VL: QIVLTQSPAIMSASLGERVTMTCTASSSVSSSFLHWYQQKPGSSPQLWIYSTSNLAEGVPARFSGSGSGTSYSLTISSMEAEDAATYYCHQYHHSPYIYTFGGGTKLEIK")
0.751
>>> measured_number("KB001 mouse Fab variant VL Q91M (Fab, V domains shown) VH: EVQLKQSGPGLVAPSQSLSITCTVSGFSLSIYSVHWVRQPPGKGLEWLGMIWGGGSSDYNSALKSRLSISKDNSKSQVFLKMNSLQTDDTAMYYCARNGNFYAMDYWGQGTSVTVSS VL: QIVLTQSPAIMSASLGERVTMTCTASSSVSSSFLHWYQQKPGSSPQLWIYSTSNLASGVPARFSGSGSGTSYSLTISSMEAEDAATYYCHMYHHSPYIYTFGGGTKLEIK")
0.757
>>> measured_number("KB001 mouse Fab variant VL L55Q (Fab, V domains shown) VH: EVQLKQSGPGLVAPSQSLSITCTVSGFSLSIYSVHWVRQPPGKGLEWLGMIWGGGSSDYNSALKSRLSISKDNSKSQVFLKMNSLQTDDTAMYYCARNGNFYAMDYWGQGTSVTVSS VL: QIVLTQSPAIMSASLGERVTMTCTASSSVSSSFLHWYQQKPGSSPQLWIYSTSNQASGVPARFSGSGSGTSYSLTISSMEAEDAATYYCHQYHHSPYIYTFGGGTKLEIK")
0.662
>>> measured_number("KB001 mouse Fab variant VL S57I (Fab, V domains shown) VH: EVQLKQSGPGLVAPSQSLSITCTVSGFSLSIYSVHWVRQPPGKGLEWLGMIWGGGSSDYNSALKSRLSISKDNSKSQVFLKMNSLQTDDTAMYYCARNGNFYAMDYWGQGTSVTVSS VL: QIVLTQSPAIMSASLGERVTMTCTASSSVSSSFLHWYQQKPGSSPQLWIYSTSNLAIGVPARFSGSGSGTSYSLTISSMEAEDAATYYCHQYHHSPYIYTFGGGTKLEIK")
0.791
>>> measured_number("KB001 mouse Fab variant VL L55H (Fab, V domains shown) VH: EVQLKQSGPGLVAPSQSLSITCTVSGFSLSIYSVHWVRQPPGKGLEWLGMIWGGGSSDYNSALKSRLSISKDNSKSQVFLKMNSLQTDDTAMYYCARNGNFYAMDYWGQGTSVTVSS VL: QIVLTQSPAIMSASLGERVTMTCTASSSVSSSFLHWYQQKPGSSPQLWIYSTSNHASGVPARFSGSGSGTSYSLTISSMEAEDAATYYCHQYHHSPYIYTFGGGTKLEIK")
0.64
>>> measured_number("KB001 mouse Fab variant VL Y97K (Fab, V domains shown) VH: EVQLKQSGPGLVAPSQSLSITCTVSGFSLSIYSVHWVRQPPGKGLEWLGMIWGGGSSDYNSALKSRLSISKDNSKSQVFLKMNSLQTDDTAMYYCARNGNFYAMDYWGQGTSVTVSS VL: QIVLTQSPAIMSASLGERVTMTCTASSSVSSSFLHWYQQKPGSSPQLWIYSTSNLASGVPARFSGSGSGTSYSLTISSMEAEDAATYYCHQYHHSPKIYTFGGGTKLEIK")
0.654
>>> measured_number("KB001 mouse Fab variant VL S95C (Fab, V domains shown) VH: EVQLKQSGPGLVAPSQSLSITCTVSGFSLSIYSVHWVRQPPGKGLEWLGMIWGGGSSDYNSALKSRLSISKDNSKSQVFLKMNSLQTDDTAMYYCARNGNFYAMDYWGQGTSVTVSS VL: QIVLTQSPAIMSASLGERVTMTCTASSSVSSSFLHWYQQKPGSSPQLWIYSTSNLASGVPARFSGSGSGTSYSLTISSMEAEDAATYYCHQYHHCPYIYTFGGGTKLEIK")
0.849
